Listing of entries alongside the reported EC50.
test system: HCV 1b genotype; assay: HCV replicon assay (HCV-neo replicon cells, wild-type); assay type: cell-based, Hepatitis C virus; conditions: Hepatitis C virus, HCV 1b genotype replicon; class symbols; read-out: EC50 Range against HCV 1b
experimentalEndpoint: EC50

[[record]]
compound = "C[C@H](NC(=O)c1cc(Cl)ccn1)C(=O)Nc1ccc(-c2nnc(-c3ccc(NC(=O)[C@H](C)NC(=O)c4cc(Cl)ccn4)cc3)o2)cc1 [RK-37]"
assaysystem = "HCV 1b genotype"
experimentalendpoint = "EC50"
valuereported = "1000 to 10000 nM"

[[record]]
compound = "Cc1cc(C(=O)N2CCC[C@H]2C(=O)Nc2ccc(-c3cnc(-c4ccc(NC(=O)[C@@H]5CCCN5C(=O)c5cc(C)oc5C)cc4)o3)cc2)c(C)o1 [XY-34]"
assaysystem = "HCV 1b genotype"
experimentalendpoint = "EC50"
valuereported = "100 to 999 nM"

[[record]]
compound = "Cn1cccc1C(=O)N1C[C@H](OC(C)(C)C)C[C@H]1C(=O)Nc1ccc(-c2cnc(-c3ccc(NC(=O)[C@@H]4C[C@@H](OC(C)(C)C)CN4C(=O)c4cccn4C)cc3)o2)cc1 [XY-71]"
assaysystem = "HCV 1b genotype"
experimentalendpoint = "EC50"
valuereported = "1000 to 10000 nM"

[[record]]
compound = "O=C(Nc1ccc(-c2cnc(-c3ccc(NC(=O)[C@@H]4CCCN4C(=O)c4ccoc4)cc3)o2)cc1)[C@@H]1CCCN1C(=O)c1ccoc1 [XY-38]"
assaysystem = "HCV 1b genotype"
experimentalendpoint = "EC50"
valuereported = "4.57 to 99 nM"

[[record]]
compound = "COCCOCC(=O)N1CCC[C@H]1C(=O)Nc1ccc(-c2cnc(-c3ccc(NC(=O)[C@@H]4CCCN4C(=O)COCCOC)cc3)o2)cc1 [XY-8]"
assaysystem = "HCV 1b genotype"
experimentalendpoint = "EC50"
valuereported = "1000 to 10000 nM"

[[record]]
compound = "O=C(Nc1ccc(-c2cnc(-c3ccc(NC(=O)[C@@H]4CCCN4C(=O)c4ccco4)cc3)o2)cc1)[C@@H]1CCCN1C(=O)c1ccco1 [XY-37]"
assaysystem = "HCV 1b genotype"
experimentalendpoint = "EC50"
valuereported = "100 to 999 nM"

[[record]]
compound = "O=C(Nc1ccc(-c2cnc(-c3ccc(NC(=O)[C@@H]4CCCN4C(=O)CN4C(=O)OC(c5ccccc5)C4=O)cc3)o2)cc1)[C@@H]1CCCN1C(=O)CN1C(=O)OC(c2ccccc2)C1=O (some centres unmarked) [JR-22]"
assaysystem = "HCV 1b genotype"
experimentalendpoint = "EC50"
valuereported = "1000 to 10000 nM"

[[record]]
compound = "O=C(Nc1ccc(-c2cnc(-c3ccc(NC(=O)[C@@H]4CCCN4C(=O)Cn4c(=O)[nH]c5ccccc54)cc3)o2)cc1)[C@@H]1CCCN1C(=O)Cn1c(=O)[nH]c2ccccc21 [JR-9]"
assaysystem = "HCV 1b genotype"
experimentalendpoint = "EC50"
valuereported = "100 to 999 nM"

[[record]]
compound = "O=C(Nc1ccc(-c2cnc(-c3ccc(NC(=O)[C@@H]4C[C@@H](O)CN4C(=O)c4cccs4)cc3)o2)cc1)[C@@H]1C[C@@H](O)CN1C(=O)c1cccs1 [XY-54]"
assaysystem = "HCV 1b genotype"
experimentalendpoint = "EC50"
valuereported = "1000 to 10000 nM"

[[record]]
compound = "CC(Oc1cccc(Cl)c1)C(=O)N1CCC[C@H]1C(=O)Nc1ccc(-c2cnc(-c3ccc(NC(=O)[C@@H]4CCCN4C(=O)C(C)Oc4cccc(Cl)c4)cc3)o2)cc1 (some centres unmarked) [XY-12]"
assaysystem = "HCV 1b genotype"
experimentalendpoint = "EC50"
valuereported = "100 to 999 nM"

[[record]]
compound = "O=C(Nc1ccc(-c2cnc(-c3ccc(NC(=O)[C@@H]4C[C@@H](O)CN4C(=O)C4CCC4)cc3)o2)cc1)[C@@H]1C[C@@H](O)CN1C(=O)C1CCC1 [XY-46]"
assaysystem = "HCV 1b genotype"
experimentalendpoint = "EC50"
valuereported = "100 to 999 nM"

